Study System: Estrogen receptor (Bos taurus) (UniProt Q9XSB5+P49884)
Measurement Protocol: Relative binding affinity for the calf uterine estrogen receptor by 17-beta-[3H]-estradiol displacement.
Assay type: protein assay
Each item that follows carries a reported relative binding affinity (RBA).
Quantity: relative binding affinity (RBA)

# Structure As Smiles, Quantity, Endpoint Result
data = [
    ("Cc1c(-c2ccc(O)cc2)n(Cc2c(Cl)cccc2Cl)c2ccc(O)cc12", "relative binding affinity (RBA)", 3.6),
    ("Cc1c(-c2ccc(O)cc2)n(Cc2cccc(Cl)c2)c2ccc(O)cc12", "relative binding affinity (RBA)", 5.1),
    ("Cc1c(-c2ccc(O)cc2)n(Cc2ccc(C#N)cc2)c2ccc(O)cc12", "relative binding affinity (RBA)", 14),
    ("Cc1ccc(Cn2c(-c3ccc(O)cc3)c(C)c3cc(O)ccc32)cc1", "relative binding affinity (RBA)", 11),
    ("Cc1c(-c2ccc(O)cc2)n(-c2ccccc2)c2ccc(O)cc12", "relative binding affinity (RBA)", 9),
    ("Cc1c(-c2ccc(O)cc2)n(CC2CCCCC2)c2ccc(O)cc12", "relative binding affinity (RBA)", 5.2),
    ("Cc1c(-c2ccc(O)cc2)n(-c2ccccc2)c2cc(O)ccc12", "relative binding affinity (RBA)", 7.5),
    ("Cc1c(-c2ccc(O)cc2)n(Cc2ccc(Cl)cc2)c2ccc(O)cc12", "relative binding affinity (RBA)", 8),
    ("Cc1c(-c2ccc(O)cc2)n(Cc2ccccc2)c2cc(O)ccc12", "relative binding affinity (RBA)", 11),
    ("Cc1c(-c2ccc(O)cc2)n(C(=O)c2ccccc2)c2ccc(O)cc12", "relative binding affinity (RBA)", 2.4),
    ("Cc1c(-c2ccc(O)cc2)n(Cc2ccccc2)c2ccc(O)cc12", "relative binding affinity (RBA)", 16),
]

###

Study System: Estrogen receptor (Mus musculus) (UniProt O08537+P19785)
Sequence (O08537 whole entry, looked up): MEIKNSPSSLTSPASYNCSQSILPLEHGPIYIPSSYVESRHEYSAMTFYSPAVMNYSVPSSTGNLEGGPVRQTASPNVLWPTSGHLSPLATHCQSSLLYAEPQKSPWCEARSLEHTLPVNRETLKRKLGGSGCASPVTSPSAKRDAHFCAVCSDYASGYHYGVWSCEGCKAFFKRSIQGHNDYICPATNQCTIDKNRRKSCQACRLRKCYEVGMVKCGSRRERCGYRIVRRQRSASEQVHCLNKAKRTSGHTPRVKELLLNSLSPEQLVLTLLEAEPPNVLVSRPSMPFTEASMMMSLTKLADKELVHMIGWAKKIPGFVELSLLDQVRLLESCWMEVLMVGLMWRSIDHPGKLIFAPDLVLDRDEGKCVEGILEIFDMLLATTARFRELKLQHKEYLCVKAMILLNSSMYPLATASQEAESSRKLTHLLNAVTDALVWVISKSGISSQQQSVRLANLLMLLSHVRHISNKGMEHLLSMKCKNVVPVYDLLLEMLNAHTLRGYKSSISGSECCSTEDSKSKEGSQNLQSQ
Sequence (P19785 whole entry, looked up): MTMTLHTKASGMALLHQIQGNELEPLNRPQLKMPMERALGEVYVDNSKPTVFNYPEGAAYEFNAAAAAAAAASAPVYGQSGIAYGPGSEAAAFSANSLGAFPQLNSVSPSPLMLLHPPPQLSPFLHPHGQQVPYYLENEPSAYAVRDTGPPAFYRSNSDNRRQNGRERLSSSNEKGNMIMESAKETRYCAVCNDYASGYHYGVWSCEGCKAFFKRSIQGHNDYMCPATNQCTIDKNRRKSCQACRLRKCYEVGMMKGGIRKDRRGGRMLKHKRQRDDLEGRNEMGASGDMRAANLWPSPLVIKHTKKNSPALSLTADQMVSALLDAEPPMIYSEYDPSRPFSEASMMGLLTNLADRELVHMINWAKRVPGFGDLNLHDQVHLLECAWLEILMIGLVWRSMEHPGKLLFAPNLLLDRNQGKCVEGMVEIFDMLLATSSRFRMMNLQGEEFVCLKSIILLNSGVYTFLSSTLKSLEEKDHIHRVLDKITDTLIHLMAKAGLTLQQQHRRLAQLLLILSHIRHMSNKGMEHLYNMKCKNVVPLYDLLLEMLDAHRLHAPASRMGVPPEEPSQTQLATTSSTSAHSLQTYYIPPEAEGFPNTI
Measurement Protocol: Estrogenic activity as Uterus dry weight (mg)/body weight (g) *100 in mice at 25 ug

# Structure As Smiles, Activity
rows = [
    ("CC(=O)Oc1ccc(-c2c(C)c3cc(OC(C)=O)ccc3n2Cc2ccccc2)cc1", 22.6),
    ("CC(=O)Oc1ccc(-c2c(C)c3ccc(OC(C)=O)cc3n2-c2ccccc2)cc1", 17.8),
    ("COc1ccc(Cn2c(-c3ccc(OC(C)=O)cc3)c(C)c3cc(OC(C)=O)ccc32)cc1", 14.7),
    ("CC(=O)Oc1ccc(-c2c(C)c3cc(OC(C)=O)ccc3n2Cc2ccc(C#N)cc2)cc1", 15.1),
    ("CC(=O)Oc1ccc(-c2c(C)c3cc(OC(C)=O)ccc3n2Cc2ccc(C)cc2)cc1", 20.3),
    ("CC(=O)Oc1ccc(-c2c(C)c3ccc(OC(C)=O)cc3n2Cc2ccccc2)cc1", 17.1),
]

###

Reported Activity values are given for each entry in this list.
Study System: Estrogen receptor (Mus musculus) (UniProt O08537+P19785)
Measurement Protocol: Estrogenic activity as Uterus dry weight (mg)/body weight (g) *100 in mice at 5 ug

# Structure As Smiles, Activity
records = [
    ("COc1ccc(Cn2c(-c3ccc(OC(C)=O)cc3)c(C)c3cc(OC(C)=O)ccc32)cc1", 14.3),
    ("CC(=O)Oc1ccc(-c2c(C)c3ccc(OC(C)=O)cc3n2Cc2ccccc2)cc1", 12.3),
    ("CC(=O)Oc1ccc(-c2c(C)c3ccc(OC(C)=O)cc3n2-c2ccccc2)cc1", 13.4),
    ("CC(=O)Oc1ccc(-c2c(C)c3cc(OC(C)=O)ccc3n2Cc2ccccc2)cc1", 13.3),
    ("CC(=O)Oc1ccc(-c2c(C)c3cc(OC(C)=O)ccc3n2Cc2ccc(C#N)cc2)cc1", 14),
    ("CC(=O)Oc1ccc(-c2c(C)c3cc(OC(C)=O)ccc3n2Cc2ccc(C)cc2)cc1", 14.4),
]

###

Study System: Estrogen receptor (Mus musculus) (UniProt O08537+P19785)
Measurement Protocol: Anti-estrogenic activity as Uterus dry weight (mg)/body weight (g) *100 in mice at 125 ug
Type: functional, tissue-based
Quantity: Activity

# Structure As Smiles, Endpoint Result
measured = [
    ("COc1ccc(Cn2c(-c3ccc(OC(C)=O)cc3)c(C)c3cc(OC(C)=O)ccc32)cc1", 40.1),
    ("CC(=O)Oc1ccc(-c2c(C)c3ccc(OC(C)=O)cc3n2Cc2ccccc2)cc1", 44.6),
    ("CC(=O)Oc1ccc(-c2c(C)c3ccc(OC(C)=O)cc3n2-c2ccccc2)cc1", 32.4),
    ("CC(=O)Oc1ccc(-c2c(C)c3cc(OC(C)=O)ccc3n2Cc2ccccc2)cc1", 34.7),
    ("CC(=O)Oc1ccc(-c2c(C)c3cc(OC(C)=O)ccc3n2Cc2ccc(C)cc2)cc1", 36),
    ("CC(=O)Oc1ccc(-c2c(C)c3cc(OC(C)=O)ccc3n2Cc2ccc(C#N)cc2)cc1", 30.5),
]

###

Study System: Estrogen receptor (Mus musculus) (UniProt O08537+P19785)
Measurement Protocol: Estrogenic activity as Uterus dry weight (mg)/body weight (g) *100 in mice with 0.4 ug estrone
Format: functional, tissue-based
Quantity: Activity

# Structure As Smiles, Endpoint Result
records = [
    ("COc1ccc(Cn2c(-c3ccc(OC(C)=O)cc3)c(C)c3cc(OC(C)=O)ccc32)cc1", 52.2),
    ("CC(=O)Oc1ccc(-c2c(C)c3ccc(OC(C)=O)cc3n2-c2ccccc2)cc1", 42),
    ("CC(=O)Oc1ccc(-c2c(C)c3cc(OC(C)=O)ccc3n2Cc2ccc(C#N)cc2)cc1", 48.2),
    ("CC(=O)Oc1ccc(-c2c(C)c3ccc(OC(C)=O)cc3n2Cc2ccccc2)cc1", 46.5),
    ("CC(=O)Oc1ccc(-c2c(C)c3cc(OC(C)=O)ccc3n2Cc2ccccc2)cc1", 47.4),
]

###

Study System: Estrogen receptor (Bos taurus) (UniProt Q9XSB5+P49884)
Measurement Protocol: Relative binding affinity for the calf uterine estrogen receptor by 17-beta-[3H]-estradiol displacement.
Format: protein assay
Lab note: compare relative binding affinity (RBA) with 3, writing Met if less and Not met if equal or more.

# Structure As Smiles, Class Name
data = [
    ("Cc1cccc(Cn2c(-c3ccc(O)cc3)c(C)c3cc(O)ccc32)c1", "Not met"),
    ("Cc1c(-c2ccc(O)cc2)n(Cc2ccc(O)cc2)c2ccc(O)cc12", "Not met"),
    ("Cc1c(-c2ccc(O)cc2)n(Cc2ccccc2)c2ccccc12", "Met"),
    ("Cc1c(-c2ccc(O)cc2)n(CCc2ccccc2)c2ccc(O)cc12", "Met"),
    ("Cc1c(-c2ccccc2)n(Cc2ccccc2)c2ccc(O)cc12", "Met"),
    ("Cc1c(-c2ccc(O)cc2)n(Cc2ccccc2Cl)c2ccc(O)cc12", "Not met"),
]

###

Listed next: entries and their corresponding Activity.
Study System: Estrogen receptor (Mus musculus) (UniProt O08537+P19785)
Measurement Protocol: Anti-estrogenic activity as Uterus dry weight (mg)/body weight (g) *100 in mice at 125 ug
Type: functional, tissue-based
Condition Details: in the assay text read “Estrogenic activity” for “Anti-estrogenic activity”

# Structure As Smiles, Activity
data = [
    ("CC(=O)Oc1ccc(-c2c(C)c3cc(OC(C)=O)ccc3n2Cc2ccc(C#N)cc2)cc1", 20),
    ("CC(=O)Oc1ccc(-c2c(C)c3ccc(OC(C)=O)cc3n2Cc2ccccc2)cc1", 32.4),
    ("COc1ccc(Cn2c(-c3ccc(OC(C)=O)cc3)c(C)c3cc(OC(C)=O)ccc32)cc1", 30.9),
    ("CC(=O)Oc1ccc(-c2c(C)c3ccc(OC(C)=O)cc3n2-c2ccccc2)cc1", 26.4),
    ("CC(=O)Oc1ccc(-c2c(C)c3cc(OC(C)=O)ccc3n2Cc2ccccc2)cc1", 30.7),
    ("CC(=O)Oc1ccc(-c2c(C)c3cc(OC(C)=O)ccc3n2Cc2ccc(C)cc2)cc1", 32.9),
]

###

Study System: Estrogen receptor (Mus musculus) (UniProt O08537+P19785)
Measurement Protocol: Estrogenic activity as Uterus dry weight (mg)/body weight (g) *100 in mice at 625 ug

# Structure As Smiles, Activity
records = [
    ("CC(=O)Oc1ccc(-c2c(C)c3cc(OC(C)=O)ccc3n2Cc2ccc(C)cc2)cc1", 40),
    ("CC(=O)Oc1ccc(-c2c(C)c3ccc(OC(C)=O)cc3n2-c2ccccc2)cc1", 34.8),
    ("CC(=O)Oc1ccc(-c2c(C)c3cc(OC(C)=O)ccc3n2Cc2ccccc2)cc1", 38.1),
    ("COc1ccc(Cn2c(-c3ccc(OC(C)=O)cc3)c(C)c3cc(OC(C)=O)ccc32)cc1", 45),
    ("CC(=O)Oc1ccc(-c2c(C)c3cc(OC(C)=O)ccc3n2Cc2ccc(C#N)cc2)cc1", 27.4),
    ("CC(=O)Oc1ccc(-c2c(C)c3ccc(OC(C)=O)cc3n2Cc2ccccc2)cc1", 32.6),
]
